target: mGlu5 (Rattus norvegicus)
experiment_summary: mGlu5 calcium mobilization assay
Format: cell-based
settings: original batch of virtual screen hit (ChemDiv), 10-point CRC
measured_endpoint: IC50 (nM)

* N#Cc1cnc(Nc2nc3ccccc3o2)nc1-c1ccccc1 | 75

----------
Recorded measurements of pIC50, one per entry
target: mGlu5 (Rattus norvegicus, UniProt P31424)
Sequence (P31424 21-1203): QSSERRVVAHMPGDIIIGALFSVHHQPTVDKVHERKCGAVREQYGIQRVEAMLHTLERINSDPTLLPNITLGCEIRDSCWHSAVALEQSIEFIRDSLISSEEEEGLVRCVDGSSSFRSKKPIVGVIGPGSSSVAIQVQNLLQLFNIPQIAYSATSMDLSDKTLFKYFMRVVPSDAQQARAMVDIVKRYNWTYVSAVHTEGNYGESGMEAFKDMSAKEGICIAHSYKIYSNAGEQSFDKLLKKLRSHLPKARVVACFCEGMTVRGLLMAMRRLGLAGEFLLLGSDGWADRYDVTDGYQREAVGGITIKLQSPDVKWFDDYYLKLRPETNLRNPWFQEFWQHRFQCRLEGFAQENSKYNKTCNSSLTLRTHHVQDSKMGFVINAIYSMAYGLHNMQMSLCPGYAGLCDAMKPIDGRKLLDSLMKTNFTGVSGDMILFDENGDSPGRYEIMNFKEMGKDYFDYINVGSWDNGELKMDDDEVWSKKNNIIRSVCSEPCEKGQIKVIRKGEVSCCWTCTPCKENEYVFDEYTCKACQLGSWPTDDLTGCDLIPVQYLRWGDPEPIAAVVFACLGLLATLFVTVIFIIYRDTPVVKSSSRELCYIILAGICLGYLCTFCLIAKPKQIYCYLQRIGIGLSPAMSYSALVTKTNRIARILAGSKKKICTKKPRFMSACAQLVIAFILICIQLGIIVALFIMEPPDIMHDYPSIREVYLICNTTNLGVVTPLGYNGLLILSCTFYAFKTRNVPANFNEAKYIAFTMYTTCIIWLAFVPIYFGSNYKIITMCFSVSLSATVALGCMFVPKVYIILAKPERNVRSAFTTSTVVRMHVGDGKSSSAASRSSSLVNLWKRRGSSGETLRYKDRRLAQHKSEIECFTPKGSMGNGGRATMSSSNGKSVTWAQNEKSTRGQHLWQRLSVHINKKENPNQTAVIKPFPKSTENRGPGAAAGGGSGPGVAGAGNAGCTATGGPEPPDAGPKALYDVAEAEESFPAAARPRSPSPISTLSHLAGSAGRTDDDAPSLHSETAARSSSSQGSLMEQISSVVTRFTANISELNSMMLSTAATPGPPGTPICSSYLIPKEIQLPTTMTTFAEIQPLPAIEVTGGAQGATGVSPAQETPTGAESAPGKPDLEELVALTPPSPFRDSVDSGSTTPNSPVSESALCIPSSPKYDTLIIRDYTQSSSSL
experiment_summary: mGlu5 calcium mobilization assay
Format: cell-based
settings: mGlu5 calcium mobilization; average of at least three determinations
pIC50: −log10 of the molar value.
measured_endpoint: pIC50

- COc1ccccc1-c1nc(Nc2nc3ccccc3o2)ncc1C#N [18g]: 7.21
- N#Cc1cnc(Nc2nc3ccccc3o2)nc1-c1ccc(Cl)cc1F [18y]: 6.43
- CCOc1ccccc1-c1nc(Nc2nc3ccccc3o2)ncc1C#N [18r]: 5.18
- N#Cc1cnc(Nc2nc3ccccc3o2)nc1-c1ccc(F)cc1 [18k]: 7.04
- N#Cc1cnc(Nc2nc3ccccc3o2)nc1-c1ccccc1: 7.05
- COc1cc(F)ccc1-c1nc(Nc2nc3ccccc3o2)ncc1C#N [18z]: 6.66
- N#Cc1cnc(Nc2nc3ccccc3o2)nc1-c1ccc(F)c(F)c1 [18t]: 5.59

The measured values listed here are drawn from paper PMC3517057.
